Measured pIC50, listed per entry for reference.
# target or test system: PDE3A recombinant enzyme (Homo sapiens (Human), UniProt Q14432)
# Sequence (Q14432 whole entry): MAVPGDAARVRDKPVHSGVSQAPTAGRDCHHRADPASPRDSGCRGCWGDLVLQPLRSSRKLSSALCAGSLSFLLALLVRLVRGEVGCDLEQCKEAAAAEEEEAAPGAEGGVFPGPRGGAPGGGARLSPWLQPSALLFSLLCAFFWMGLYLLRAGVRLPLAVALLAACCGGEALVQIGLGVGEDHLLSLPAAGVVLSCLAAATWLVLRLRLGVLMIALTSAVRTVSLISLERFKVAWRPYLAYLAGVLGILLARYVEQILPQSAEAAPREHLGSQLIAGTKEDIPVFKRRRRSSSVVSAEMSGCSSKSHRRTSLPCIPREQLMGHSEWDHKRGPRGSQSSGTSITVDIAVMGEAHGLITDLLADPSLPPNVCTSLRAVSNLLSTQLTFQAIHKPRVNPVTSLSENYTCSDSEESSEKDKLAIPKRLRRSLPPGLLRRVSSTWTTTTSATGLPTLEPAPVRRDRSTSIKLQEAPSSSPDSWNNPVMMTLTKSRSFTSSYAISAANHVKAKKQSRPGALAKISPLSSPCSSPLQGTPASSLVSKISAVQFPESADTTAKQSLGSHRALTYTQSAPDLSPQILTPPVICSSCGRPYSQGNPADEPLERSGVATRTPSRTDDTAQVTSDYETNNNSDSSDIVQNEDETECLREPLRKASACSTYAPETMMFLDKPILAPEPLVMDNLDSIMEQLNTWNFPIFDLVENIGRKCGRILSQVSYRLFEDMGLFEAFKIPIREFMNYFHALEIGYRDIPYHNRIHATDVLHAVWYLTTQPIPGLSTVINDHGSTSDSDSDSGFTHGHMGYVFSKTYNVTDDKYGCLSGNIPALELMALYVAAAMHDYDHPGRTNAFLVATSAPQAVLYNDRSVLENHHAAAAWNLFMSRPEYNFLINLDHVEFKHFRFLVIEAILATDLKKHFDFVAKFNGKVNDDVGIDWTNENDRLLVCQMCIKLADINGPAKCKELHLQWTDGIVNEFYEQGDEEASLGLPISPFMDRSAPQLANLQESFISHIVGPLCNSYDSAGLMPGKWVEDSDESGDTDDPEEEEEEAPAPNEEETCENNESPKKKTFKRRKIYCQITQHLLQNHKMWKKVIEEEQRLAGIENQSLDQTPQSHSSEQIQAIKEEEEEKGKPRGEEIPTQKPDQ
# method description: In vitro assay of inhibitory activity against PDE 3A enzyme (FP, FAM-cAMP)
# Format: biochemical
# condition notes: values in text; read-out: PDE 3 IC50
pIC50: −log10 of the molar value.

line notation	target or test system	pIC50
[2H]C([2H])([2H])Oc1cc2c(cc1OC)CCn1c-2c/c(=N\c2c(C)cc(C)cc2C)n(CCNC(N)=O)c1=O	PDE3A recombinant enzyme (Homo sapiens (Human), UniProt Q14432)	9.77
[2H]C([2H])([2H])Oc1cc2c(cc1OC)-c1c/c(=N\c3c(C)cc(C)cc3C)n(CCNC(N)=O)c(=O)n1CC2	PDE3A recombinant enzyme (Homo sapiens (Human), UniProt Q14432)	9.82
